assay: reversal of MRP1-mediated doxorubicin resistance, pilot screen, H69AR cells, doxorubicin co-treatment (AID 601); settings: H69AR cells + 2 uM doxorubicin, CellTiter-Glo, 72 h; measured here: viability with 2 uM doxorubicin; at 10 µM; stronger effect = lower value
The reader will find reported viability values listed item by item below.
recorded.metric: viability

• CCOC(=O)CSC1=C(C#N)C(=O)NC2(CCCCC2)S1 = 95.9%
• COc1ccc(C(=O)N2CCSC2=S)cc1OC = 93.6%
• CN(C=C1C(=O)CC(C)(C)CC1=O)CCN1CCNCC1 = 85.8%
• COc1ccccc1N1CCN(C(=O)c2ccc(S(=O)(=O)N3CCCCCC3)cc2)CC1 = 88%
• O=C(CN1C(=O)CSC1=O)N1CCc2ccccc2C1 = 89.3%
• CCN(CC)S(=O)(=O)c1ccc2c(c1)nc(SCC(=O)NC1CC1)n2-c1ccccc1OC = 77.1%
